Test system: A549
Test: Human tumor cell-line growth assay, A549
Format: cell-based
Conditions: 10-dose, 3-fold dilution starting at 10 μM, read-out: IC50 growth inhibition A549
property_measured: IC50

Bench note, A549: entry "C#Cc1cccc(Nc2c(C#N)cnc3cc(OCC)c(NC(=O)/C=C/CN(C)C)cc23)c1" , its IC50 = < 1000 nM

---

Test: Pharmacokinetics after IV administration to Sprague-Dawley rats
Details: rat, in vivo, read-out: mean Clearance (CL) (converted)
property_measured: clearance (mL/min/kg)
The figure you give is taken to be in mL/min/kg; do not add the unit.

C#Cc1cccc(Nc2c(C#N)cnc3cc(OCC)c(NC(=O)/C=C/CN(C)C)cc23)c1    59.7

Kindly note the recorded clearance for "[2H]C([2H])([2H])N(C/C=C/C(=O)Nc1cc2c(Nc3cccc(C#C)c3)c(C#N)cnc2cc1OCC)C([2H])([2H])[2H]" , which is 47.1

---

Tested on: A431
Test: Human tumor cell-line growth assay, A431
Type: cell-based
Conditions: A-431, A431 (overexpressing EGFR), 10-dose, 3-fold dilution starting at 10 μM, read-out: IC50 growth inhibition A431
pIC50: −log10 of the molar value.
property_measured: pIC50

Bench note, A431: entry C#Cc1cccc(Nc2c(C#N)cnc3cc(OCC)c(NC(=O)/C=C/CN(C)C)cc23)c1 [Compound C] , its pIC50 = > 6.00

---

Test: Pharmacokinetics after IV administration to Sprague-Dawley rats
Details: rat, in vivo, read-out: mean elimination half-life (T1/2) (converted)
Below, each entry is listed with its recorded half-life.
The figure you give is taken to be in h; do not add the unit.

Example entries begin here.
C#Cc1cccc(Nc2c(C#N)cnc3cc(OCC)c(NC(=O)/C=C/CN(C)C)cc23)c1    5.37
CCOc1cc2ncc(C#N)c(Nc3ccc(OCc4ccccn4)c(Cl)c3)c2cc1NC(=O)/C=C/CN(C)C [HKI272, reference compound]    5.28
[2H]C([2H])([2H])N(C/C=C/C(=O)Nc1cc2c(Nc3ccc(OCc4ccccn4)c(Cl)c3)c(C#N)cnc2cc1OCC)C([2H])([2H])[2H]    6.59

Kindly note the recorded half-life for "[2H]C([2H])([2H])N(C/C=C/C(=O)Nc1cc2c(Nc3cccc(C#C)c3)c(C#N)cnc2cc1OCC)C([2H])([2H])[2H]" , which is 8.76

---

Biological target: ErbB2/HER2 (Homo sapiens)
Construct: Recombinant catalytic domain, amino acids 679-1255, GST tagged, purified from insect cells; GST
Sequence (P04626 679-1255): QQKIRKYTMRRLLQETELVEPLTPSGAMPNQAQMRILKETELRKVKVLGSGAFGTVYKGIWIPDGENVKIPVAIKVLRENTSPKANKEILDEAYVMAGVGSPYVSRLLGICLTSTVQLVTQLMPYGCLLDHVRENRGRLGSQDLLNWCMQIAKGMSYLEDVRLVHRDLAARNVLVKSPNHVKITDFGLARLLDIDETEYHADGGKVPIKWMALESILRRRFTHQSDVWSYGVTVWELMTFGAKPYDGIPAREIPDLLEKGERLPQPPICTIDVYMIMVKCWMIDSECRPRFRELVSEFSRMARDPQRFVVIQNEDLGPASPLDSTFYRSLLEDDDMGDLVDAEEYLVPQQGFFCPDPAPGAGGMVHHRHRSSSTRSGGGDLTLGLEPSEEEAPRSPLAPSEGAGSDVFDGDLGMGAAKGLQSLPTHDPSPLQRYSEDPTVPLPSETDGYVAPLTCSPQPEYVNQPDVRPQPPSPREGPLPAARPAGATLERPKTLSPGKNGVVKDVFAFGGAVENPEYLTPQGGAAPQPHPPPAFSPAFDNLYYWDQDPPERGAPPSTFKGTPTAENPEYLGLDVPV
Test: Radiometric kinase assay, ErbB2/HER2
Settings: read-out: potency (IC50) over Her-2 assay
pIC50: −log10 of the molar value.
property_measured: pIC50

Example entries begin here.
C#Cc1cccc(Nc2c(C#N)cnc3cc(OCC)c(NC(=O)/C=C/CN(C)C)cc23)c1    > 6.00
[2H]C([2H])([2H])N(C/C=C/C(=O)Nc1cc2c(Nc3cccc(C#C)c3)c(C#N)cnc2cc1OCC)C([2H])([2H])[2H]    > 6.00

Now, please, on to the next compound.
Kindly note the recorded pIC50 for "[2H]C([2H])([2H])N(C/C=C/C(=O)Nc1cc2c(Nc3ccc(OCc4ccccn4)c(Cl)c3)c(C#N)cnc2cc1OCCOC)C([2H])([2H])[2H]" , which is > 6.00
